- METHOD NOTES: ATG_Oct_MLP_CIS: Attagene CIS-FACTORIAL HepG2 Assay for human Octamer-Binding Transcription Factor (Oct) (AID 2282993)
- DETAILS: HepG2 Attagene cis-factorial Oct reporter, mRNA; actives raise or lower the signal
Calls of active or inactive are those of the source. Rule for the calls: active = hit-call score of the fitted dose curve at least 0.9, where 1 is the maximum; inactive = score below 0.9.
Just give me one of these, please: active, inactive

Input line: Short answer needed: outcome of this test for ClC1(Cl)C2(Cl)C3(Cl)C4(Cl)C(Cl)(Cl)C5(Cl)C3(Cl)C1(Cl)C5(Cl)C24Cl (centres undefined) ?
Output line: inactive

Input line: Short answer needed: outcome of this test for C[C@H]1CCCC(=O)CCC/C=C/c2cc(O)cc(O)c2C(=O)O1 ?
Output line: active

Input line: Short answer needed: outcome of this test for O=P(O)(O)CN(CP(=O)(O)O)CP(=O)(O)O ?
Output line: inactive

Input line: Short answer needed: outcome of this test for CC(C)(C)CC(C)(C)c1ccc(O)cc1 ?
Output line: inactive

Input line: Short answer needed: outcome of this test for C=CC#N ?
Output line: inactive

Input line: Short answer needed: outcome of this test for CCN1CCC2(CC1)COc1cc3c(cc12)N(C(=O)c1ccc(-c2ccc(-c4nnc(C)o4)cc2C)cc1)CC3 ?
Output line: inactive

Input line: Short answer needed: outcome of this test for CC(Br)C(=O)O (centres undefined) ?
Output line: inactive

Input line: Short answer needed: outcome of this test for CC(=O)[O][Hg][c]1ccccc1 ?
Output line: active

Input line: Short answer needed: outcome of this test for CNC(=O)O/N=C/C(C)(C)S(C)=O (centres undefined) ?
Output line: inactive

Input line: Short answer needed: outcome of this test for COS(=O)(=O)c1ccc(C)cc1 ?
Output line: inactive

Input line: Short answer needed: outcome of this test for O=c1[nH]c(=O)[nH]c(=O)[nH]1 ?
Output line: inactive

Input line: Short answer needed: outcome of this test for CCOP(=S)(OCC)SCCS(=O)(=O)CC ?
Output line: inactive

Input line: Short answer needed: outcome of this test for O=[N+]([O-])c1ccc(O)c([N+](=O)[O-])c1 ?
Output line: inactive

Input line: Short answer needed: outcome of this test for CCN(CC)C(=O)Cl ?
Output line: inactive

Input line: Short answer needed: outcome of this test for O=C(O)C(Cl)(Cl)Cl ?
Output line: inactive

Input line: Short answer needed: outcome of this test for O=[N+]([O-])c1c(Cl)c(Cl)cc(Cl)c1Cl ?
Output line: inactive

Input line: Short answer needed: outcome of this test for Cl/C=C/Cl ?
Output line: inactive

Input line: Short answer needed: outcome of this test for CCC(=O)C(CC(C)N(C)C)(c1ccccc1)c1ccccc1 (centres undefined) ?
Output line: inactive

Input line: Short answer needed: outcome of this test for CC(C)C1CCC(Cc2ccc(Cl)cc2)C1(O)Cn1cncn1 (centres undefined) ?
Output line: inactive

Input line: Short answer needed: outcome of this test for NNC(=S)NN ?
Output line: inactive

Input line: Short answer needed: outcome of this test for CCSC(C)CC1CC(=O)C(C(CC)=NOC/C=C/Cl)=C(O)C1 (centres undefined) ?
Output line: inactive

Input line: Short answer needed: outcome of this test for CC(C)(C)c1cc(O)ccc1O ?
Output line: active

Input line: Short answer needed: outcome of this test for O=C(c1ccccc1)C(Cl)Cl ?
Output line: active

Input line: Short answer needed: outcome of this test for CCCCCCCCc1ccc(O)cc1 ?
Output line: inactive

Input line: Short answer needed: outcome of this test for C[C@@H](Oc1ccc(Cl)cc1Cl)C(=O)O ?
Output line: inactive

Input line: Short answer needed: outcome of this test for COc1ccc(OC)c(C=O)c1 ?
Output line: inactive

Input line: Short answer needed: outcome of this test for ClCc1cccnc1 ?
Output line: active

Input line: Short answer needed: outcome of this test for Cc1ccccc1C(=O)Nc1cccc(OC(C)C)c1 ?
Output line: inactive

Input line: Short answer needed: outcome of this test for COC(=O)Cc1ccccc1 ?
Output line: inactive

###

- Read-out: Monocyte Chemoattractant Protein-1 (MCP1), CCL2 (gene 6347)
- METHOD NOTES: BSK_4H_MCP1: BioMAP Diversity Plus: 4H Assay for Monocyte Chemoattractant Protein-1 (MCP1) Biomarker Activity (AID 2283018)
- DETAILS: primary human endothelial cells (HUVEC); actives raise or lower the signal
Activity calls are given as the source filed them. The calls were made as follows: active = hit-call score of the fitted dose curve at least 0.9, where 1 is the maximum; inactive = score below 0.9.
Just give me one of these, please: Yes = active, No = inactive

Input line: Short answer needed: outcome of this test for COc1cc(OC)nc(NC(=O)NS(=O)(=O)c2ncccc2C(=O)N(C)C)n1 ?
Output line: No

Input line: Short answer needed: outcome of this test for Cn1sc(Cl)cc1=O ?
Output line: No

Input line: Short answer needed: outcome of this test for CCOP(=S)(OCC)Oc1ccc(S(C)=O)cc1 (centres undefined) ?
Output line: No

Input line: Short answer needed: outcome of this test for Oc1c(I)cc(I)cc1I ?
Output line: Yes

Input line: Short answer needed: outcome of this test for NC(=S)Nc1ccccc1 ?
Output line: No

Input line: Short answer needed: outcome of this test for COC[C@H](C)N(C(=O)CCl)c1c(C)csc1C ?
Output line: No

Input line: Short answer needed: outcome of this test for CCOP(=S)(OCC)SCSP(=S)(OCC)OCC ?
Output line: No

Input line: Short answer needed: outcome of this test for CC(C)(C)c1cc(O)ccc1O ?
Output line: No

Input line: Short answer needed: outcome of this test for CCOC(=O)/C=C(C)/C=C/C[C@@H](C)CCCC(C)C ?
Output line: Yes

Input line: Short answer needed: outcome of this test for Nc1cccc2ccccc12 ?
Output line: No

Input line: Short answer needed: outcome of this test for O=[N+]([O-])c1ccc(O)c([N+](=O)[O-])c1 ?
Output line: No

Input line: Short answer needed: outcome of this test for BrCCBr ?
Output line: No

Input line: Short answer needed: outcome of this test for CC(C)(OO)c1ccccc1 ?
Output line: No

Input line: Short answer needed: outcome of this test for COC(=O)c1sccc1S(=O)(=O)NC(=O)Nc1nc(C)nc(OC)n1 ?
Output line: No

###

- Read-out: Tumor necrosis factor (Homo sapiens) (UniProt P01375)
- Sequence (P01375 whole entry, looked up): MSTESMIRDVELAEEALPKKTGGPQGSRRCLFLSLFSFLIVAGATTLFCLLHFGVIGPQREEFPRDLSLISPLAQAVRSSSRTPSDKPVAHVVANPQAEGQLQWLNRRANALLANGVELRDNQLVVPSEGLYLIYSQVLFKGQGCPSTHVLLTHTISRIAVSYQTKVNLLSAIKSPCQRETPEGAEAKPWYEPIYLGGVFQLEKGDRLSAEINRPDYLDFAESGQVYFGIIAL
- METHOD NOTES: BSK_LPS_TNFa: BioMAP Diversity Plus: LPS Assay for Tumour Necrosis Factor alpha (TNFa) Biomarker Activity (AID 2283085)
- DETAILS: primary human HUVEC with PBMC; actives raise or lower the signal
- Procedure: BSK_LPS is a cell-based, multiplexed-readout assay that uses umbilical vein endothelium and peripheral blood mononuclear cells, a human vascular primary cell co-culture, with measurements taken at 24 hours after chemical dosing in a 96-well plate.BSK_LPS_TNFa is an assay component measured in the BSK_LPS assay. It measures TNF-a antibody related to regulation of gene expression using ELISA technology.Data from the assay component BSK_LPS_TNFa was analyzed into 1 assay endpoint. […]
Activity calls are given as the source filed them. How the source made its calls: active means hit-call score of the fitted dose curve at least 0.9, where 1 is the maximum; inactive means score below 0.9.
Just give me one of these, please: class 1 = active, class 0 = inactive

Input line: Short answer needed: outcome of this test for CCN1CCC2(CC1)COc1cc3c(cc12)N(C(=O)c1ccc(-c2ccc(-c4nnc(C)o4)cc2C)cc1)CC3 ?
Output line: class 1

Input line: Short answer needed: outcome of this test for COP(=S)(OC)Oc1cc(Cl)c(Cl)cc1Cl ?
Output line: class 1

Input line: Short answer needed: outcome of this test for BrCCBr ?
Output line: class 0

Input line: Short answer needed: outcome of this test for ClC1(Cl)C2(Cl)C3(Cl)C4(Cl)C(Cl)(Cl)C5(Cl)C3(Cl)C1(Cl)C5(Cl)C24Cl (stereo not drawn) ?
Output line: class 1

Input line: Short answer needed: outcome of this test for ClCC(Cl)CCl ?
Output line: class 0

Input line: Short answer needed: outcome of this test for Oc1cccc2cccnc12 ?
Output line: class 0

Input line: Short answer needed: outcome of this test for CC(C)c1ccc(CO)cc1 ?
Output line: class 0

Input line: Short answer needed: outcome of this test for Nc1ccc(-c2ccc(N)c(Cl)c2)cc1Cl ?
Output line: class 0

Input line: Short answer needed: outcome of this test for Oc1c(I)cc(I)cc1I ?
Output line: class 0

Input line: Short answer needed: outcome of this test for ClC1=C(Cl)[C@]2(Cl)[C@H]3[C@H]([C@H]4C=C[C@H]3C4)[C@@]1(Cl)C2(Cl)Cl ?
Output line: class 1

Input line: Short answer needed: outcome of this test for CCC(C)(C)c1ccc(O)c(C(C)(C)CC)c1 ?
Output line: class 1

Input line: Short answer needed: outcome of this test for NC(=O)O ?
Output line: class 0

Input line: Short answer needed: outcome of this test for Cn1sc(Cl)cc1=O ?
Output line: class 1

###

- Read-out: Urokinase-type plasminogen activator receptor (uPAR), PLAUR (gene 5329)
- METHOD NOTES: BSK_4H_uPAR: BioMAP Diversity Plus: 4H Assay for Urokinase-type plasminogen activator receptor (uPAR) Biomarker Activity (AID 2283030)
- DETAILS: primary human endothelial cells (HUVEC); actives raise or lower the signal
Calls of active or inactive are those of the source. The calls were made as follows: active = hit-call score of the fitted dose curve at least 0.9, where 1 is the maximum; inactive = score below 0.9.
Just give me one of these, please: active, inactive

Input line: Short answer needed: outcome of this test for CCCCCCCCC(=O)NCc1ccc(O)c(OC)c1 ?
Output line: inactive

Input line: Short answer needed: outcome of this test for Cn1sc(Cl)cc1=O ?
Output line: inactive

Input line: Short answer needed: outcome of this test for CCN1CCC2(CC1)COc1cc3c(cc12)N(C(=O)c1ccc(-c2ccc(-c4nnc(C)o4)cc2C)cc1)CC3 ?
Output line: active

Input line: Short answer needed: outcome of this test for CCCCC(CC)CO[N+](=O)[O-] (stereo not drawn) ?
Output line: active

Input line: Short answer needed: outcome of this test for NC(=S)Nc1ccccc1 ?
Output line: inactive

Input line: Short answer needed: outcome of this test for Nc1ccc(-c2ccc(N)c(Cl)c2)cc1Cl ?
Output line: active

Input line: Short answer needed: outcome of this test for CN(C)N=O ?
Output line: inactive

Input line: Short answer needed: outcome of this test for CCOP(=S)(OCC)SCSP(=S)(OCC)OCC ?
Output line: inactive

Input line: Short answer needed: outcome of this test for O=C1C2(Cl)C3(Cl)C4(Cl)C(Cl)(Cl)C5(Cl)C3(Cl)C1(Cl)C5(Cl)C24Cl (stereo not drawn) ?
Output line: active

Input line: Short answer needed: outcome of this test for C[C@]12CCC(=O)C[C@@H]1CC[C@@H]1[C@@H]2CC[C@]2(C)[C@@H](O)CC[C@@H]12 ?
Output line: inactive

Input line: Short answer needed: outcome of this test for COP(=S)(OC)Oc1ccc(S(=O)(=O)N(C)C)cc1 ?
Output line: inactive

Input line: Short answer needed: outcome of this test for BrCCBr ?
Output line: inactive

Input line: Short answer needed: outcome of this test for COc1cc(OC)nc(NC(=O)NS(=O)(=O)c2ncccc2C(=O)N(C)C)n1 ?
Output line: inactive
